# TEST METHOD NOTES: supercomplex reporter luminescence per Hoechst cell count – Hoechst nuclei count (AID 1645838);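 further: control cybrid cells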;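 on z-score: higher means more mitochondrial supercomplex formation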
# CONDITION PARAMETERS: Cells, luminescence/Hoechst cell count ratio, library stock concentration (final well concentration not given) 2 mM, stronger effect = higher value
Screen size: about 2,000 compounds; about 100 (5%) were called active. For the sample, actives were picked, then their nearest neighbours and some compounds at random.
Below, each entry is listed with its recorded z-score.
REPORTED ENDPOINT: z-score

INSERT INTO measurements (smiles_repr, reported_endpoint, value_measured) VALUES
  ('O=C(Nc1cccc(Nc2ncc(Br)c(NCCc3cnc[nH]3)n2)c1)N1CCCC1', 'z-score', 0.129),
  ('Cc1ccc(NC(=O)c2ccc(CN3CCN(C)CC3)cc2)cc1Nc1nccc(-c2cccnc2)n1', 'z-score', -0.269),
  ('Cc1ccc(C(=O)Nc2cccc(C(F)(F)F)c2)cc1Nc1cncc(C(N)=O)c1', 'z-score', -0.861),
  ('Cc1ccc(NC(=O)c2cccc(C(C)(C)C#N)c2)cc1Nc1ccc2ncn(C)c(=O)c2c1', 'z-score', 2.43),
  ('O=C(Oc1nsnc1N1CCCCC1)N1CCOCC1', 'z-score', 0.737);

---

# TEST METHOD NOTES: supercomplex reporter luminescence per Hoechst cell count – Hoechst nuclei count (AID 1645838);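 further: control cybrid cells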
# CONDITION PARAMETERS: Cells, luminescence/Hoechst cell count ratio, measured here: cell number, Hoechst nuclei count, library stock concentration (final well concentration not given) 400 uM
About 100 (5%) of roughly 2,000 compounds were called active. The entries come from a sample that favours actives as a whole.
Below, each entry is listed with its recorded cell count.
REPORTED ENDPOINT: cell count

INSERT INTO assay_data (compound, reported_endpoint, value_measured) VALUES
  ('CC(=O)Nc1ccc(C(=O)Nc2sc(Nc3ccccc3)nc2C(N)=O)cc1', 'cell count', 5070),
  ('COc1ccc(C(=O)C(=O)c2ccc(OC)cc2)cc1', 'cell count', 5760),
  ('Cn1ncnc1C1c2n[nH]c(=O)c3cc(F)cc(c23)NC1c1ccc(F)cc1 (stereo not given)', 'cell count', 2650),
  ('Nc1nc(OC(c2ccc(-c3cccc(F)c3)cc2)C(F)(F)F)cc(-c2ccc(CC(N)C(=O)O)cc2)n1 (stereo not given)', 'cell count', 5340),
  ('COC1C(N(C)C(=O)c2ccccc2)C[C@@H]2O[C@]1(C)n1c3ccccc3c3c4c(c5c6ccccc6n2c5c31)C(=O)NC4 (stereo not given in full)', 'cell count', 4120),
  ('COC(=O)C(CCSC)NC(=O)c1ccc(NCC(N)CS)cc1-c1ccccc1 (stereo not given)', 'cell count', 6350),
  ('CC(C)(C)n1nc(-c2ccc(Cl)cc2)c2c(N)ncnc21', 'cell count', 5110),
  ('COc1ccc(C(=O)Nc2sc(Nc3ccccc3)nc2C(N)=O)cc1', 'cell count', 4800),
  ('CCCC(=O)Nc1nc(-c2ccccc2)cc(-c2ccccc2)n1', 'cell count', 5300),
  ('CC1(C)OC2CO[C@@]3(COS(N)(=O)=O)OC(C)(C)OC3C2O1 (stereo not given in full)', 'cell count', 6200);

---

# TEST METHOD NOTES: supercomplex reporter luminescence per Hoechst cell count – Hoechst nuclei count (AID 1645838);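 further: control cybrid cells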
# CONDITION PARAMETERS: Cells, luminescence/Hoechst cell count ratio, measured here: cell number, Hoechst nuclei count
Out of some 2,000 compounds screened, about 100 (5%) were called active. For the sample, actives were picked, then their nearest neighbours and some compounds at random.
REPORTED ENDPOINT: cell count

INSERT INTO assay_data (compound, value_measured) VALUES
  ('CCCCC[C@H](O)/C=C/[C@H]1[C@H](O)CC(=O)[C@@H]1CC(=O)CCCCC(=O)O', 5230),
  ('CCCCCCCCCCCCC(O)C(=O)O (stereo unspecified)', 5820),
  ('O=C1NC(=O)/C(=C/c2ccc3nccnc3c2)S1', 4050),
  ('CCCCC[C@H](O)/C=C/[C@@H]1[C@H]2C[C@H](CCCCC(=O)O)O[C@H]2C[C@H]1O', 5310),
  ('O=C(O)CCC/C=C\C[C@@H]1[C@@H](/C=C/[C@@H](O)C2CCCCC2)[C@H](O)C[C@@H]1O', 5180),
  ('CCCCCCCCCCCCCCCCCCOC[C@H](COP(=O)([O-])OCC[N+](C)(C)C)OC(C)=O', 5980),
  ('CC#CCC(C)[C@H](O)/C=C/[C@@H]1[C@H]2C/C(=C\CCCC(=O)O)C[C@H]2C[C@H]1O (stereo partly specified)', 5310),
  ('COc1ccc(-c2nc3cc(F)ccc3s2)cc1OC', 5090),
  ('O=C(O)CCC/C=C/C[C@@H]1[C@@H](CC[C@@H](O)CCc2ccccc2)[C@H](O)C[C@@H]1O', 5360),
  ('CCCCC[C@H]1/C=C/[C@@H]2[C@@H](C/C=C\CCCC(=O)O1)[C@@H](O)C[C@H]2O', 5780),
  ('CCCCC/C=C\C/C=C\CCCCCCCC(=O)OCC(COC(=O)CCCCCCCCCCCCCCC)OC(=O)CCCCCCC/C=C\CCCCCCCC (stereo unspecified)', 5490),
  ('CCCCC[C@H](O)/C=C/[C@H]1CC[C@H](O)[C@@H]1CCCCCCC(=O)O', 5510),
  ('CCCCCCCCCCCCCCCCC/C=C\C(=O)O', 4620),
  ('CCOC(=O)c1c(Cc2cccc(Cl)c2)[nH]c2c1cc(O)c1ccccc12', 5070),
  ('CCCCC[C@H](O)/C=C/[C@@H]1[C@H]2CC(CCCCC(=O)O)O[C@H]2C[C@H]1O (stereo partly specified)', 6080),
  ('CC/C=C\C/C=C\C/C=C\C/C=C\CCCCC(=O)OCC', 5380),
  ('CCCCCCCC/C=C\CCCCCCCCCCCC(N)=O', 5640),
  ('CCCCCCCCCCCCCCCCC/C=C/C(=O)O', 4980),
  ('CCCCCCCCCC(=O)N[C@@H](CN1CCOCC1)[C@@H](O)c1ccccc1', 5620),
  ('CCCCCCCC/C=C\CCCCCCCC(=O)OCC(O)COP(=O)(O)O (stereo unspecified)', 5650),
  ('O=C1NC(=O)/C(=C/c2ccc3c(c2)OC(F)(F)O3)S1', 4670);
